- Tested On: JARID1B (Homo sapiens)
- Construct: The FLAG tagged full length JARID1B enzyme was expressed in Sf21 insect cells using FLAG-JARID1B baculoviruses; FLAG (N); made in house; host or cells: Sf21 insect cells (baculovirus)
- Sequence (Q9UGL1 whole entry): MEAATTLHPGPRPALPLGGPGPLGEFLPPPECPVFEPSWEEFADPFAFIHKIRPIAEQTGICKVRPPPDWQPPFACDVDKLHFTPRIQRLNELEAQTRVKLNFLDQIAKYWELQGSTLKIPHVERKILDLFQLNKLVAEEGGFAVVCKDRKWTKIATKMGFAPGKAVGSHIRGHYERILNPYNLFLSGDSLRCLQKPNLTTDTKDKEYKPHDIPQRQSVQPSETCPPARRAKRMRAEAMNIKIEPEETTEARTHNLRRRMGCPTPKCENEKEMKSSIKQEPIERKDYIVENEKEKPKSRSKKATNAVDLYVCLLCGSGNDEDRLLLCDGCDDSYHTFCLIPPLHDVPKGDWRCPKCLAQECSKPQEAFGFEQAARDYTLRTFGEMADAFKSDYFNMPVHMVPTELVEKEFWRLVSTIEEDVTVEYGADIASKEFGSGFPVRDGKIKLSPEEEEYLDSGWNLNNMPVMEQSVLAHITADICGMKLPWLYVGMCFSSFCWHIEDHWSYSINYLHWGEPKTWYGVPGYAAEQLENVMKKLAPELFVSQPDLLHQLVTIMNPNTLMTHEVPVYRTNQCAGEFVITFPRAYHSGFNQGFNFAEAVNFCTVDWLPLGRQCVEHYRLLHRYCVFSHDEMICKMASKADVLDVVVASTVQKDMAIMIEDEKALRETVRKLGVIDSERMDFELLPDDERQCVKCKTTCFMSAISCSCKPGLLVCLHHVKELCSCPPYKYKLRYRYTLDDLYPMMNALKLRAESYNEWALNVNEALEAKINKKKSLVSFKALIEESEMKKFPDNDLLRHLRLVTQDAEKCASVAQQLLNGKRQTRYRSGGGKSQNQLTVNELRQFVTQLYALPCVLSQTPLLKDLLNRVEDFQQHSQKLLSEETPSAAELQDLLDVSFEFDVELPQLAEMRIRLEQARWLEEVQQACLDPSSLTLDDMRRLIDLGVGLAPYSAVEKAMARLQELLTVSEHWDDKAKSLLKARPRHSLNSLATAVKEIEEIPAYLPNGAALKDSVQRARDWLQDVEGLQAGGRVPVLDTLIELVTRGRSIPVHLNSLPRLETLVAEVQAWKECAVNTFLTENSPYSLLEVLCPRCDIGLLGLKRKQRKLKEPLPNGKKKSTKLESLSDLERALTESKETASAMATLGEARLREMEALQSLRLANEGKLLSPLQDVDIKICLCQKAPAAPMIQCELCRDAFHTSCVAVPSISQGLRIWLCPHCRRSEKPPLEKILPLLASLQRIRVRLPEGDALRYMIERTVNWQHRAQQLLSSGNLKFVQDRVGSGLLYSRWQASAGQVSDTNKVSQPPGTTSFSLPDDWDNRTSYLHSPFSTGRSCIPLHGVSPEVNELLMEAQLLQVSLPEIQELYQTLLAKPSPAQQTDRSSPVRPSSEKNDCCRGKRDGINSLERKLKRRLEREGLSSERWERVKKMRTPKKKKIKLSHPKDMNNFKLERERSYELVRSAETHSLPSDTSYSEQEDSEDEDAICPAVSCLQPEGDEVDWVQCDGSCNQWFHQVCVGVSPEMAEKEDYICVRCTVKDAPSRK
- Assay Remarks: FLAG-JARID1B histone demethylase assay with AlphaScreen detection (HTS and dose response);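 note: compound tested at 20 µM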
- Format: biochemical
- Measurement Conditions: assay signal minus artifact signal
Where a name gives a salt, the structure may show the parent alone.
Classification by Assay − Artifact Signal (percent) follows these ranges: lower (below 20%), middle (20% to below 40%), upper (40% or more)

Molecule	Label
O=C1c2c(O)cccc2Cc2cccc(O)c21 [YU033694, ANTHRALIN, reference compound]	lower
Oc1c(C(Nc2ccccc2Cl)c2cccnc2)ccc2cccnc12 (stereo not shown) [YU172164]	lower
NC(=O)c1ncn([C@@H]2O[C@H](CO)[C@@H](O)[C@H]2O)n1 [YU034518, RIBAVIRIN, reference compound]	middle
N#CC(=Cc1ccc(O)c(O)c1)C(N)=O (single isomer, unassigned) [YU154833, TYRPHOSTIN 46, reference compound]	upper
c1cc(CNc2ccc(N3CCOCC3)cc2)ccn1 [YU129874]	upper
Cn1cnnc1SCC(=O)c1ccc(C(C)(C)C)cc1 [YU149180]	upper
O=C1C=C2C[C@@]3(O)COc4cc(O)ccc4C3=C2C=C1O [YU155025, BRAZILEIN, reference compound]	lower
Cc1ccc(C(=O)Nc2cnc(N3CCN(c4ccccc4Cl)CC3)c(C(=O)O)c2)cc1 [YU208246]	lower
COC(=O)Nc1nnc(CC2CCCC2)s1 [YU146034]	middle
CCC(=O)Nc1ccc(N2CCCC2)c(C(=O)O)c1 [YU208199]	lower
COc1ccc(C)cc1NC(c1cccnc1)c1ccc2cccnc2c1O (stereo not shown) [YU172175]	lower
CCC(=O)c1c(O)n(C)c(=O)n(C)c1=O [YU145029]	middle
O=C(O)c1cc(O)c(O)c(O)c1 [YU155562, GALLIC ACID, reference compound]	upper
N#CC(=Cc1ccc(-c2ccccc2)o1)C(N)=S [YU146534]	lower
C=CCO[C@H]1[C@H](O)[C@H](OCC=C)[C@H](O)[C@@H](OCC=C)[C@@H]1O [YU035165]	lower
CCCN1CCN(C(=O)c2ccncc2)CC1 [YU145702]	upper
CCOc1c(CNc2ccc(N3CCCC3)cc2)cccc1OC [YU153287]	lower
Cc1[nH]c2nc(C(F)(F)F)nn2c(=O)c1C [YU172199]	upper
N#CC(=Cc1ccc(O)c(O)c1)C(N)=S (single isomer, unassigned) [YU154834, TYRPHOSTIN 47, reference compound]	middle
C[n+]1cc2c3c(ccc2c2ccc4cc5c(cc4c21)OCO5)OCO3 [YU033662, SANGUINARINE SULFATE, reference compound]	upper
S=c1[nH]cnc2nc[nH]c12 [YU033892, MERCAPTOPURINE, reference compound]	middle
Cc1noc2c1C(c1ccc(O)c(O)c1)C1=C(CC(C)(C)CC1=O)N2 (stereo not shown) [YU185530]	middle
CNC[C@H](O)c1ccc(O)c(O)c1 [YU033809, ADRENALINE BITARTRATE, reference compound]	upper
C=CCOc1c(Cl)cc(C=C[N+](=O)[O-])cc1OCC (single isomer, unassigned) [YU148636]	lower
COc1cccc2c1C(=O)c1c(O)c3c(c(O)c1C2=O)C[C@@](O)(C(C)=O)C[C@@H]3O[C@H]1C[C@H](N)[C@H](O)[C@H](C)O1 [YU155488, DAUNORUBICIN, reference compound]	upper
Cc1ccccc1C(=O)NCc1nnc(S)n1C [YU147024]	middle
Cc1cccc(NC(c2cccnc2)c2ccc3cccnc3c2O)c1 (stereo not shown) [YU172169]	lower
Oc1cc2c(cc1O)C1c3ccc(O)c(O)c3OCC1(O)C2 (stereo not shown) [YU155005, HAEMATOXYLIN, reference compound]	upper
Cc1nn2c(=O)[nH]c3sc4c(c3c2nc1=O)CC(C)(C)OC4 [YU152236]	upper
COc1cc(C(=S)N2CC(C)OC(C)C2)cc(OC)c1O (stereo not shown) [YU151441]	lower
COC(=O)c1cccc(OCC(O)Cn2ccnc2)c1 (stereo not shown) [YU148087]	lower
c1ccc(CCc2nn3c(-c4ccncc4)nnc3s2)cc1 [YU150981]	upper

----------
- Assay Remarks: AlphaScreen counterscreen against bio-H3K4me2 peptide in the absence of enzyme (artifact signal);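 note: counterscreen run without enzyme against bio-H3K4me2 peptide to remove false positive hits from the JARID1 demethylase AlphaScreen screen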
- Measurement Conditions: effect of the compound when incubated with bio-H3K4me2 peptide (counterscreen, no enzyme)
Where a name gives a salt, the structure may show the parent alone.

Compound	Unit Of Measurement	Relation Symbol	Artifact Signal (percent)
Cl.Cn1cccc1CNCc1ccncc1	%	=	8.99
CN1CCc2cccc3c2C1Cc1ccc(O)c(O)c1-3 (stereo not shown) [YU033696, APOMORPHINE HYDROCHLORIDE, reference compound]	%	=	8.29
COc1ccc(Cl)cc1NC(=S)Nn1cnnc1	%	=	−2.20
CN(C)[C@@H]1C(O)=C(C(N)=O)C(=O)[C@@]2(O)C(O)=C3C(=O)c4c(O)ccc(Cl)c4[C@@](C)(O)[C@H]3C[C@@H]12 [YU033743, AUREOMYCIN, reference compound]	%	=	0.43
C=CCn1c(-c2ccc([N+](=O)[O-])cc2)n[nH]c1=S	%	=	3.36
c1ccc(-c2nn3c(Cn4cnc5ccccc54)nnc3s2)cc1	%	=	−6.99
Cc1ccc(C)c(NS(=O)(=O)c2ccc3[nH]c(=O)oc3c2)c1	%	=	−6.03
O=C(O)c1ccnc(C(=O)O)c1 [YU221215, 2,4-Pyridinedicarboxylic Acid, reference compound]	%	=	3.00
C/C1=C2/[N-][C@H]([C@H](CC(N)=O)[C@@]2(C)CCC(=O)NC[C@@H](C)OP(=O)([O-])O[C@H]2[C@@H](O)[C@@H](n3cnc4cc(C)c(C)cc43)O[C@@H]2CO)[C@]2(C)N=C(/C(C)=C3N=C(/C=C4N=C1[C@@H](CCC(N)=O)C\4(C)C)[C@@H](CCC(N)=O)[C@]\3(C)CC(N)=O)[C@@H](CCC(N)=O)[C@]2(C)CC(N)=O.[Co] [YU034137, COBALAMINE, reference compound]	%	=	1.27
O=C(O)C=Cc1ccc(O)c(O)c1 (single isomer, unassigned) [YU155280, CAFFEIC ACID, reference compound]	%	=	−1.92
c1cc(CNc2ccc3c(c2)OCCO3)ccn1	%	=	0.99
COC(=O)Nc1nnc(CC2CCCC2)s1	%	<	2.79
N#CC(=Cc1ccc(N2CCCCC2)o1)c1ccc([N+](=O)[O-])cc1 (single isomer, unassigned)	%	=	2.40
N#CC(=Cc1ccc(-c2ccccc2)o1)C(N)=S	%	=	4.53
COc1ccc2c(CCN)c[nH]c2c1.Cl	%	=	−1.79
Cc1ccccc1C(=O)NCc1nnc(S)n1C	%	=	−5.84

----------
- Tested On: JARID1B (Homo sapiens)
- Construct: The FLAG tagged full length JARID1B enzyme was expressed in Sf21 insect cells using FLAG-JARID1B baculoviruses; FLAG (N); made in house; host or cells: Sf21 insect cells (baculovirus)
- Assay Remarks: FLAG-JARID1B histone demethylase assay with AlphaScreen detection (HTS and dose response);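 note: FLAG-tagged JARID1B at 4 nM acting on a biotinylated H3K4me3 peptide, demethylation read by AlphaScreen luminescence, with hits checked against bio-H3K4me2 without enzyme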;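 note: compound tested at 20 µM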
- Format: biochemical
- Measurement Conditions: validation of HTS actives; effect of compound in JARID1B AlphaScreen assay
Structures can show the parent of a compound that is named as a salt.
Measured Property: Assay Signal (percent) (%)

Molecule	Measured Property	Val
Oc1ccc2c(c1)OCC1(O)Cc3cc(O)c(O)cc3C21 (centres unmarked) [YU154998, BRAZILIN, reference compound]	Assay Signal (percent)	15.51
Cc1cccc(NC(c2cccnc2)c2ccc3cccnc3c2O)c1 (centres unmarked) [YU172169]	Assay Signal (percent)	73.22
NNC(=O)c1ccncc1 [YU033872, ISONIAZID, reference compound]	Assay Signal (percent)	45.10
Oc1cccc(C(=S)N2CCN(Cc3ccccc3)CC2)c1 [YU151559]	Assay Signal (percent)	27.61
NCCc1cc(O)c(O)cc1O [YU033940, OXIDOPAMINE HYDROCHLORIDE, reference compound]	Assay Signal (percent)	36.84
c1cc(CNc2ccc3c(c2)OCCO3)ccn1 [YU146041]	Assay Signal (percent)	55.23
Cc1nnc(S)n1NCc1ccc2c(c1)OCO2 [YU147191]	Assay Signal (percent)	45.05
c1cc(CNc2ccc(N3CCOCC3)cc2)ccn1 [YU129874]	Assay Signal (percent)	72.06
C[C@@H]1O[C@@H](OC[C@H]2OC(OC3=C(c4ccc(O)c(O)c4)Oc4cc(O)cc(O)c4C3O)[C@H](O)[C@@H](O)[C@@H]2O)[C@H](O)[C@H](O)[C@H]1O (some centres unmarked) [YU033654, RUTOSIDE (rutin), reference compound]	Assay Signal (percent)	58.08
COc1ccc(OC)c(Nc2nc(=O)c3cccnc3s2)c1 [YU151897]	Assay Signal (percent)	40.43
Cn1cnnc1SCC(=O)c1ccc(C(C)(C)C)cc1 [YU149180]	Assay Signal (percent)	50.21
COC(=O)NC1(C(F)(F)F)C(=O)NC(C)=C1C(=O)OC (centres unmarked) [YU149831]	Assay Signal (percent)	13.59
Cc1nn2c(=O)[nH]c3sc4c(c3c2nc1=O)CC(C)(C)OC4 [YU152236]	Assay Signal (percent)	49.40
CCN(CC)CCOc1ccc(/C(=C(\Cl)c2ccccc2)c2ccccc2)cc1 [YU033752, CLOMIPHENE CITRATE, reference compound]	Assay Signal (percent)	16.67
N#CC(=Cc1ccc(O)c(O)c1)C(N)=O (single isomer, unassigned) [YU154833, TYRPHOSTIN 46, reference compound]	Assay Signal (percent)	50.42
COc1cc(C=O)ccc1OC(=O)c1ccncc1 [YU146698]	Assay Signal (percent)	48.27
O=c1c2cc(O)c(O)cc2oc2cc(O)c([C@@H]3O[C@H](CO)[C@@H](O)[C@H](O)[C@H]3O)c(O)c12 [YU153356, MANGIFERIN, reference compound]	Assay Signal (percent)	98.21

Values were extracted from patent US20150272939A1.
